Form field: IC50 (one value per entry).
experimental target: KRAS G12V (Homo sapiens, UniProt P01116+P62937, G12V)
Sequence (P01116 1-169 isoform P01116-2 G12V limits assumed): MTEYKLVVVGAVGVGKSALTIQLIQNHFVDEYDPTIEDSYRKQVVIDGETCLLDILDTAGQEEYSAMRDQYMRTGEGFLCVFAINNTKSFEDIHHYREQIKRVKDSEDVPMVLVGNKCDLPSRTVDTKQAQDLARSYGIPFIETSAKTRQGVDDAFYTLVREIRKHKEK
Sequence (P62937 whole entry): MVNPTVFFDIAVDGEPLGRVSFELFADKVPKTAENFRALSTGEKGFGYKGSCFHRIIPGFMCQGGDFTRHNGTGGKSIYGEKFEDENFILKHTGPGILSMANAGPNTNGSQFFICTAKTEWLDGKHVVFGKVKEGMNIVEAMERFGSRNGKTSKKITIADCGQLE
experimental protocol: Ras-Raf disruption / FRET / MOA assay (BRAF RBD)
Assay type: biochemical
assay conditions: Ras-Raf disruption, with Cyclophilin A; read-out: KRAS G12V FRET data IC50
quantity name: IC50

>>> endpoint_result("CCn1c(-c2cccnc2[C@H](C)OC)c2c3cc(ccc31)-c1cccc(c1)C[C@H](NC(=O)[C@H](C(C)C)N(C)C(=O)[C@H]1CC[C@H](N=C=NCc3ccccc3OC)C1)C(=O)N1CCC[C@H](N1)C(=O)OCC(C)(C)C2")
"> 10000 nM"
>>> endpoint_result("CCn1c(-c2cccnc2[C@H](C)OC)c2c3cc(ccc31)-c1cc(O)cc(c1)C[C@H](NC(=O)[C@H](C(C)C)N(C)C(=O)C1CN(S(=O)(=O)[C@H]3CN3C)C1)C(=O)N1CCC[C@H](N1)C(=O)OCC(C)(C)C2 (single isomer, unassigned)")
"100 to 1000 nM"

* * *

experimental target: KRAS G12S (Homo sapiens, UniProt P01116+P62937, G12S)
Sequence (P01116 1-169 isoform P01116-2 G12S limits assumed, one chain of several): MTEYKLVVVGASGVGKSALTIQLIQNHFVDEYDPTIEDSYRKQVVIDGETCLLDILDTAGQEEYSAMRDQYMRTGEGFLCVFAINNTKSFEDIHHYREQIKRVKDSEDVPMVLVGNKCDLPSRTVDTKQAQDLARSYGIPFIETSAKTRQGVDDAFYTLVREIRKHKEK
experimental protocol: Ras-Raf disruption / FRET / MOA assay (BRAF RBD)
Assay type: biochemical
assay conditions: Ras-Raf disruption, with Cyclophilin A; read-out: KRAS G12S FRET data IC50
Entries annotated with measured IC50
quantity name: IC50

>>> endpoint_result("CCn1c(-c2cccnc2[C@H](C)OC)c2c3cc(ccc31)-c1cc(cc(C(F)F)c1)C[C@H](NC(=O)[C@H](C1CCCC1)N1CC[C@]3(CCN(C(=O)[C@@H]4N[C@@H]4C4CC4)C3)C1)C(=O)N1CCC[C@H](N1)C(=O)OCC(C)(C)C2")
"1000 to 10000 nM"
>>> endpoint_result("CCn1c(-c2cccnc2[C@H](C)OC)c2c3cc(ccc31)-c1cccc(c1)C[C@H](NC(=O)[C@H](C(C)C)N(C)C(=O)[C@H]1C[C@H](N=C=NCCOC)C1)C(=O)N1CCC[C@H](N1)C(=O)OCC(C)(C)C2")
"1000 to 10000 nM"
>>> endpoint_result("CCn1c(-c2cnccc2COC)c2c3cc(ccc31)-c1cccc(c1)C[C@H](NC(=O)[C@H](C(C)C)N(C)C(=O)[C@@H]1CCC(N=C=Nc3ccc(OC)cc3)C1)C(=O)N1CCC[C@H](N1)C(=O)OCC(C)(C)C2 (stereo partly shown)")
"> 10000 nM"
>>> endpoint_result("CCn1c(-c2cccnc2[C@H](C)OC)c2c3cc(ccc31)-c1cc(O)cc(c1)C[C@H](NC(=O)[C@H](C(C)C)N(C)C(=O)[C@H]1CCCN(C(=O)[C@H]3CN3)C1)C(=O)N1CCC[C@H](N1)C(=O)OCC(C)(C)C2")
"100 to 1000 nM"

* * *

Reported IC50 values for a set of compounds
experimental target: NRAS G12C (Homo sapiens, UniProt P01111+P62937, G12C)
Sequence (P01111 whole entry G12C): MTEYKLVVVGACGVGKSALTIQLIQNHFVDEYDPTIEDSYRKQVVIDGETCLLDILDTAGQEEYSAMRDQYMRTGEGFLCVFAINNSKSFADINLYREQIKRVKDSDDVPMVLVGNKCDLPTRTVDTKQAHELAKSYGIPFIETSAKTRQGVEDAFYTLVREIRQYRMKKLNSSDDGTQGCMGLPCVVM
Sequence (P62937 whole entry): as the sequence (P62937 whole entry) above
experimental protocol: Disruption of BRAF RBD interaction with Ras (FRET / MOA assay, with Cyclophilin A)
Assay type: biochemical
assay conditions: NRAS G12C; read-out: NRAS G12C FRET data IC50
quantity name: IC50

>>> endpoint_result("CCn1c(-c2cccnc2[C@H](C)OC)c2c3cc(ccc31)-c1csc(n1)[C@@H](O)[C@H](NC(=O)[C@H](C(C)C)N(C)C(=O)N1CC(N(C)C)C1)C(=O)N1CCC[C@H](N1)C(=O)OCC(C)(C)C2 (atropisomer, axis not shown)")
"10 to 100 nM"
>>> endpoint_result("CCn1c(-c2cccnc2[C@H](C)OC)c2c3cc(ccc31)-c1csc(n1)C[C@H](NC(=O)[C@H](C(C)C)N(C)C(=O)N(C)[C@@H]1CCCN(C)C1)C(=O)N1CCC[C@H](N1)C(=O)OCC(C)(C)C2")
"100 to 1000 nM"
>>> endpoint_result("CCn1c(-c2cccnc2[C@H](C)OC)c2c3cc(ccc31)-c1csc(n1)C[C@H](NC(=O)[C@H](C(C)C)N1CCN(C)C1=O)C(=O)N1CCC[C@H](N1)C(=O)OCC(C)(C)C2")
"100 to 1000 nM"
>>> endpoint_result("CCn1c(-c2cccnc2[C@H](C)OC)c2c3cc(ccc31)-c1cc(O)cc(c1)C[C@H](NC(=O)[C@H](C(C)C)N(C)C(=O)[C@H]1CC1(F)F)C(=O)N1CCC[C@H](N1)C(=O)OCC(C)(C)C2")
"10 to 100 nM"
>>> endpoint_result("CCn1c(-c2cccnc2[C@H](C)OC)c2c3cc(ccc31)-c1cc(O)cc(c1)C[C@H](NC(=O)[C@H](C(C)C)N(C)C(=O)[C@H]1CC[C@@H](CN(C)C)O1)C(=O)N1CCC[C@H](N1)C(=O)OCC(C)(C)C2")
"10 to 100 nM"
>>> endpoint_result("CCn1c(-c2cc(N3CCN(C)CC3)cnc2[C@H](C)OC)c2c3cc(ccc31)-c1csc(n1)C[C@H](NC(C)=O)C(=O)N1CCC[C@H](N1)C(=O)OCC(C)(C)C2 [Example A321]")
"10 to 100 nM"
>>> endpoint_result("CCn1c(-c2cnccc2COC)c2c3cc(ccc31)-c1cc(O)cc(c1)C[C@H](NC(=O)[C@H](C(C)C)N(C)C(=O)O[C@H]1CCOC1)C(=O)N1CCC[C@H](N1)C(=O)OCC(C)(C)C2")
"100 to 1000 nM"
>>> endpoint_result("CCn1c(-c2cccnc2[C@H](C)OC)c2c3cc(ccc31)-c1csc(n1)C[C@H](NC(=O)[C@H](C(C)C)N(C)C(=O)N1CC3(C1)CS(=O)(=O)CCN3C)C(=O)N1CCC[C@H](N1)C(=O)OCC(C)(C)C2")
"100 to 1000 nM"
>>> endpoint_result("CCn1c(-c2cnccc2COC)c2c3cc(ccc31)-c1cc(O)cc(c1)C[C@H](NC(=O)[C@H](C(C)C)N(C)C(=O)[C@@H]1CCCN(C)C1)C(=O)N1CCC[C@H](N1)C(=O)OCC(C)(C)C2")
"100 to 1000 nM"
>>> endpoint_result("CCn1c(-c2cccnc2[C@H](C)OC)c2c3cc(ccc31)-c1cc(O)cc(c1)C[C@H](NC(=O)[C@H](C(C)C)N(C)C(=O)[C@H]1C[C@H]1C)C(=O)N1CCC[C@H](N1)C(=O)OCC(C)(C)C2")
"10 to 100 nM"
>>> endpoint_result("CCn1c(-c2cccnc2[C@H](C)OC)c2c3cc(ccc31)-c1csc(n1)C[C@H](NC(=O)[C@H](C(C)C)N(C)C(=O)N1CCC13CCN(C)CC3)C(=O)N1CCC[C@H](N1)C(=O)OCC(C)(C)C2")
"10 to 100 nM"
>>> endpoint_result("C=CC(=O)N1CCO[C@H]2CN(C(=O)N(C)[C@H](C(=O)N[C@H]3Cc4cccc(n4)-c4ccc5c(c4)c(c(-c4cccnc4[C@H](C)OC)n5CC(F)(F)F)CC(C)(C)COC(=O)C4CCCN(N4)C3=O)C(C)C)C[C@H]21 (some centres unmarked)")
"10 to 100 nM"
>>> endpoint_result("CCn1c(-c2cccnc2[C@H](C)OC)c2c3cc(ccc31)-c1csc(n1)C[C@H](NC(=O)[C@H](C(C)C)N(C)C(=O)N1CCC[C@@H](CN(C)C)C1)C(=O)N1CCC[C@H](N1)C(=O)OCC(C)(C)C2")
"10 to 100 nM"
>>> endpoint_result("CCn1c(-c2cccnc2[C@H](C)OC)c2c3cc(ccc31)-c1csc(n1)C[C@H](NC(=O)[C@H](C(C)C)N(C)C(=O)N(C)C(C)C)C(=O)N1CCC[C@H](N1)C(=O)OCC(C)(C)C2")
"10 to 100 nM"
>>> endpoint_result("CCn1c(-c2cccnc2[C@H](C)OC)c2c3cc(ccc31)-c1csc(n1)C[C@H](NC(=O)[C@H](C(C)C)N(C)C(=O)N1CCOC3(CN(C)C3)C1)C(=O)N1CCC[C@H](N1)C(=O)OCC(C)(C)C2")
"100 to 1000 nM"
>>> endpoint_result("C=CC(=O)N1CCO[C@@H]2CCN(C(=O)N(C)[C@H](C(=O)N[C@H]3Cc4nc(cs4)-c4ccc5c(c4)c(c(-c4cccnc4[C@H](C)OC)n5CC)CC(C)(C)COC(=O)C4CCCN(N4)C3=O)C(C)C)CC21 (some centres unmarked)")
"10 to 100 nM"
>>> endpoint_result("C=CC(=O)N1CC[C@@H](N(C)C(=O)N(C)[C@H](C(=O)N[C@H]2Cc3nc(cs3)-c3ccc4c(c3)c(c(-c3cccnc3[C@H](C)OC)n4CC)CC(C)(C)COC(=O)[C@@H]3CCCN(N3)C2=O)C(C)C)C1")
"10 to 100 nM"
